test system: Staphylococcus aureus; experiment: Antimicrobial activity against Staphylococcus aureus 8235 by microdilution method; assay type: functional
A collection of molecules and their measured MIC

Completed entries (count: 6):
C/C(O)=C1\C(=O)[C@H](CC(C)C)N(CC2=CCC3CC2C3(C)C)C1=O (stereo partly drawn)	25 µg/mL
C/C(=C\C(=O)OCCCCCCCCC(=O)O)C[C@@H]1OC[C@H](C[C@@H]2O[C@H]2[C@@H](C)[C@H](C)O)[C@@H](O)[C@H]1O	12.5 µg/mL
CCCCCCCCCCN1C(=O)/C(=C(/C)O)C(=O)[C@@H]1C(C)C	25 µg/mL
CCCCCCCCCCN1C(=O)/C(=C(/C)O)C(=O)[C@@H]1CC(C)C	25 µg/mL
C/C(O)=C1\C(=O)[C@H](CC(C)C)N(Cc2ccc(-c3ccccc3)cc2)C1=O	25 µg/mL
C/C(O)=C1\C(=O)[C@H](CC(C)C)N(CCC(C)C/C=C/C(C)C)C1=O (stereo partly drawn)	25 µg/mL

Continue with the molecule presented below.
Query string: Consider the molecule CN[C@H](CC(C)C)C(=O)N[C@H]1C(=O)N[C@@H](CC(N)=O)C(=O)N[C@H]2C(=O)N[C@H]3C(=O)N[C@H](C(=O)N[C@H](C(=O)O)c4cc(O)cc(O)c4-c4cc3ccc4O)[C@H](O)c3ccc(c(Cl)c3)Oc3cc2cc(c3O[C@@H]2O[C@H](CO)[C@@H](O)[C@H](O)[C@H]2O[C@H]2C[C@](C)(N)[C@H](O)[C@H](C)O2)Oc2ccc(cc2Cl)[C@H]1O and give its measured MIC.
Result string: 0.8 µg/mL
